Test: growth inhibition, single agents and combos, HD-MB03, cell-based, BGB or cisplatin IC20 combos, synergistic combos for chromothripsis tumors (AID 1671455);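 further: 0% = vehicle DMSO and 100% = high DMSO as cytotoxic control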
Settings: HD-MB03 medulloblastoma cells, measured here: combo with BGB at IC20, at 0.5 µM, stronger effect = higher value
metric.name: inhibition (%)
Enter your answer as a number in %; do not include the unit.

The examples below pair each entry with its known result.
CC1CNC(=O)NC1=O (centres undefined) :: 12
CCC(Sc1nnc2c3ccccc3n(CC)c2n1)C(=O)Nc1ccccc1OC (centres undefined) :: -20.2
O=C(CCCCCCC(=O)Nc1ccc(I)cc1)NO :: 5.06

In the following, a different compound is considered.
Query string: Please look up its inhibition: COc1ccc(-c2nc(-c3cc(C(F)(F)F)cc(C(F)(F)F)c3)n(Cc3ccc(C(N)=O)cc3)c2-c2ccc(OC)cc2)cc1
Result string: -5.38

====

Assay: viability loss with induced miR-34 in A549 – imaging, A549 dox-inducible miR-34, nuclei and caspase counts, primary screen (AID 1347080)
Conditions: A549 miR-34 inducible, Hoechst nuclei count, 48 h; measured here: total cells without miR-34 induction
Binary call on cell count: True from 3000 upward, False beneath that.

Past entries and their recorded results:
O=C(O)CNC(=O)Cc1c[nH]c2ccccc12 :: True
CN(C)CC=CC(=O)Nc1cc2c(Nc3ccc(F)c(Cl)c3)ncnc2cc1OC1CCOC1 (stereo unspecified) :: False
O=C(C=Cn1cnc(-c2cc(C(F)(F)F)cc(C(F)(F)F)c2)n1)NNc1cnccn1 :: False
CC[C@]1(O)CC2CN(CCc3c([nH]c4ccccc34)[C@@](C(=O)OC)(c3cc4c(cc3OC)N(C=O)C3[C@@](O)(C(=O)OC)C(OC(C)=O)[C@]5(CC)C=CCN6CC[C@]43C65)C2)C1 (stereo partly specified) :: False
CSCCC(NC(C)=O)C(=O)O (stereo unspecified) :: True

Please turn your attention to the following entry.
Query string: In plain terms: is recorded cell count at least 3000 for COc1ccc2nc(Cn3cnc4cc(F)ccc4c3=O)[nH]c2c1 ?
Result string: True

====

Experiment: galactose survival enhancers in mitochondrial complex I cybrids – cell-based, galactose medium, ATP luminescence, primary screen (AID 1645843);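 further: positive z means more ATP and so rescue of galactose-driven cybrid death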
Conditions: complex I mutant cybrid cells, 72 h, stronger effect = higher value
Active and inactive are the calls of the source.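 The calls were made as follows: active = z-score of at least 1.8 in each of two replicates, scored against plate mean and spread of sample wells; inactive = the rest.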
Catalogue of z-score values

The examples below pair each entry with its known result.
CCNC(=O)c1cccnc1N1CCN(c2ccc(C)cc2C)CC1 :: -0.485 (inactive)
Cc1ccc(Cn2nccc2NC(=O)Cn2cc(-c3ccc(F)cc3)cn2)o1 :: 1.75 (inactive)
Cc1ncc(CNc2cc(C(=O)Nc3cccc(N(C)C)c3)cc(S(=O)(=O)N3CCCC3)c2)[nH]1 :: 0.295 (inactive)
CN1CCN(Cc2cnc3ccccc3c2)CC1CCO (stereo unspecified) :: 0 (inactive)
COc1cccc(OC)c1-c1noc(CCN2C(=O)COc3ccccc32)n1 :: 1.39 (inactive)
CC(C)CCN1C(=O)N(C(C)C)C(=O)C12CCN(Cc1ccc(CN3CCCCC3)s1)CC2 :: 1.27 (inactive)
CC(C)CCN1C(=O)N(CCN(C)C)C(=O)C12CCN(Cc1cn(C)c3ccccc13)CC2 :: 0.81 (inactive)
c1nc(-c2ccc3c(c2)OCCO3)c2sccc2n1 :: 0.225 (inactive)

Query string: Please look up its z-score: CC(=O)c1c(C)nn(CC(=O)Nc2ccc(N3CCOCC3)cc2)c1C
Result string: -0.6 (inactive)

Query string: Now the same for O=C1CN(c2ncnc3sccc23)CCN1C1CCCC1
Result string: 1.98 (inactive)

Query string: Now the same for CCCCS(=N)(=O)CC[C@H](N)C(=O)O (stereo partly specified)
Result string: -0.84 (inactive)
